The variants listed here are annotated with their polymerase ribozyme fitness (log ratio).
B1: TPR 5TU (parent)
chain: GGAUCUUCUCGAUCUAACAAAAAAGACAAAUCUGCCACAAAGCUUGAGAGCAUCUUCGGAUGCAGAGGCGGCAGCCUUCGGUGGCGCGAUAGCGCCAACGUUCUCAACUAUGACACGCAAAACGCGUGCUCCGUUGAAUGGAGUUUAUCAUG

# Variants of: B1
# METHOD_DESCRIPTION: polymerase ribozyme fitness, log enrichment relative to wild type (log ratio); higher = more active; in vitro selection for triplet polymerase activity
Fewer inactive variants are shown than the library holds.
Please respond with just the number, no unit label.

C85U U145G :: -2
U4A C76A G86C A122C :: -3.26
U4C :: 0.371

Tell me the measured polymerase ribozyme fitness (log ratio) of G48U G83A U134A G136A , please.
-2.44

Next entry: U4G C10A C35U G83U G88C A120C G143A
-4.17

// same read-out, input: U9G U53A
-3.81

Next record, please: `C114U`
-1.75

Another: A3C A22U C85G
-2.18

Follow-up entry: G50U U145C
-0.536
